Where do these numbers come from? They come from ChEMBL document CHEMBL2218924.

Listed next: entries and their corresponding residual activity.
Biological target: Protein kinase C epsilon type (Homo sapiens) (UniProt Q02156)
Sequence (Q02156 whole entry): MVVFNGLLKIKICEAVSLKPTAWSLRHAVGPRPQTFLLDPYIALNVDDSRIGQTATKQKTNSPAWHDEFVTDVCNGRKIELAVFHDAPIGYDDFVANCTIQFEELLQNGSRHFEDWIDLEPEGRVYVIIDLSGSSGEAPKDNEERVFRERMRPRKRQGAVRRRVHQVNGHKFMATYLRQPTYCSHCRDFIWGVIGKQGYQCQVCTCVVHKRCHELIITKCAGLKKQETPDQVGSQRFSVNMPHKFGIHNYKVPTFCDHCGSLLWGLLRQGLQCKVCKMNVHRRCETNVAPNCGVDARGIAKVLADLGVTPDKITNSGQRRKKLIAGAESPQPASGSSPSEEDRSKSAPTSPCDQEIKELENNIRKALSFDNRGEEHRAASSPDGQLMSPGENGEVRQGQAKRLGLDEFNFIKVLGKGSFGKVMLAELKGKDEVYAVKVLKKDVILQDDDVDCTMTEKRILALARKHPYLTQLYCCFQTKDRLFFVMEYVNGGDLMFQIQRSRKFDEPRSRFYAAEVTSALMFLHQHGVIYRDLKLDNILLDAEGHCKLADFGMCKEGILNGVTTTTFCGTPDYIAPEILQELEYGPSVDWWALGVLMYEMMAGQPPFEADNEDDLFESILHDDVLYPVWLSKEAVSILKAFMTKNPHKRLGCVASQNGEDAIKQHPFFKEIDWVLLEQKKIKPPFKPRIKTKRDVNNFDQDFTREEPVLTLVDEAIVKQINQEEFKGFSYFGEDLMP
Conditions: at 10 µM
Write the value in % as a bare number.

Request: What value of measured residual activity is listed for O=C1C(Cl)=C(N2C(=O)CCC2=O)C(=O)c2ccccc21 ?
Response: 26

---

Target: Vascular endothelial growth factor receptor 1 (Homo sapiens) (UniProt P17948)
Sequence (P17948 whole entry): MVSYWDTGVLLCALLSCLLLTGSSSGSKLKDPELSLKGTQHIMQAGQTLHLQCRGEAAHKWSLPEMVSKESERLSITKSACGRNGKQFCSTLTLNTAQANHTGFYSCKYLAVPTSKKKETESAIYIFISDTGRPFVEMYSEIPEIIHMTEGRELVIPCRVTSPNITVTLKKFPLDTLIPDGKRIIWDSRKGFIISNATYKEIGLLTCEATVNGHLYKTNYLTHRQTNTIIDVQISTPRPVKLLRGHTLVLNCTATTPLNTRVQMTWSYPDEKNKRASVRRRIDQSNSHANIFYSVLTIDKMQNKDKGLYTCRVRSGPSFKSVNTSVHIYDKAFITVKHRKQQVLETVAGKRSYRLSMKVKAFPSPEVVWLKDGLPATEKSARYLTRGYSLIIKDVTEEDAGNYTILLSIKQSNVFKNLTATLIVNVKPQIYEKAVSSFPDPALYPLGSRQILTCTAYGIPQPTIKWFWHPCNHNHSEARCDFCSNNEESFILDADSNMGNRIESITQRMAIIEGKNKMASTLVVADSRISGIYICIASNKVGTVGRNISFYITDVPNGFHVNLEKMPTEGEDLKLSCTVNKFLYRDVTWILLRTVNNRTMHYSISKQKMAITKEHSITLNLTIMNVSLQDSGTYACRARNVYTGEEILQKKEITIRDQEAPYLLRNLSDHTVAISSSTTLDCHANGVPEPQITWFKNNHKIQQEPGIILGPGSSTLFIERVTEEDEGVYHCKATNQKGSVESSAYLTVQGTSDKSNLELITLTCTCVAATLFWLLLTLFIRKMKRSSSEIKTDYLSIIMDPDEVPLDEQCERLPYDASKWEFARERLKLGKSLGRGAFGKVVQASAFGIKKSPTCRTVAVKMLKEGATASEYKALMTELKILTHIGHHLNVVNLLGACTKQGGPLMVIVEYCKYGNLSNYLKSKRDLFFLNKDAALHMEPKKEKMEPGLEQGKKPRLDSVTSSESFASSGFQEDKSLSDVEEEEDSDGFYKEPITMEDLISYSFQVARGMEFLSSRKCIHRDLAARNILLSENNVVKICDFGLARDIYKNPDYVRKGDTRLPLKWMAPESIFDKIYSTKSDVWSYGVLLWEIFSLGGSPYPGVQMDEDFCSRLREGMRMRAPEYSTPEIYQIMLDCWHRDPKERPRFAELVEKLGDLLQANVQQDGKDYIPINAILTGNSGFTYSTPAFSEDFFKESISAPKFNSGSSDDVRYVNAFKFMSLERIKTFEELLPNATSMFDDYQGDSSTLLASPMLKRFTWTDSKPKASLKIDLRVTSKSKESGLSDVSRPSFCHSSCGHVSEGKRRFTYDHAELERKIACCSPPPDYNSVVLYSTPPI
Conditions: at 10 µM
Please enter 1 (yes) where residual activity is greater than or equal to 30%, and 0 (no) where it is lower.

Request: API: above_or_equal(metric=residual activity, cutoff=30%) for item O=C1Nc2ccccc2/C1=C\c1c(Cl)[nH]c2ccccc12
Response: 1 (yes)
